Test system: genotype 1a (H77) stable HCV replicon in Huh-7-derived cells
Assay: Stable subgenomic HCV replicon EC50, genotype 1a (Renilla luciferase)
Format: cell-based, hepatitis C virus
Conditions: Hepatitis C virus, stable replicon genotype 1a, 72 h, read-out: EC50 1A RLUC
# Met = EC50 below 10 nM (exclusive); Not met = EC50 at/above 10 nM

[
  {
    "compound": "CC[C@@H]1C[C@]1(NC(=O)[C@@H]1[C@H](C)[C@@H]2CN1C(=O)[C@H](C(C)(C)C)NC(=O)O[C@@H]1C[C@H]1CCCCCc1nc3ccc(OC)cc3nc1O2)C(=O)NS(=O)(=O)C1CC1 [Example 20]",
    "target": "genotype 1a (H77) stable HCV replicon in Huh-7-derived cells",
    "answer_label": "Met"
  },
  {
    "compound": "CC[C@@H]1[C@@H]2CN(C(=O)[C@H](C(C)(C)C)NC(=O)O[C@@H]3[C@H]4CC[C@H](C4)[C@H]3CCCCCc3nc4ccc(OC)cc4nc3O2)[C@@H]1C(=O)N[C@]1(C(=O)NS(=O)(=O)C2CC2)C[C@H]1C(F)F [Example 13]",
    "target": "genotype 1a (H77) stable HCV replicon in Huh-7-derived cells",
    "answer_label": "Not met"
  },
  {
    "compound": "CC[C@@H]1[C@@H]2CN(C(=O)[C@H](C(C)(C)C)NC(=O)O[C@@H]3C[C@@H]4C[C@@H]4[C@H]3CCCCC(F)(F)c3nc4ccc(OC)cc4nc3O2)[C@@H]1C(=O)N[C@]1(C(=O)NS(=O)(=O)C2(C)CC2)C[C@H]1C(F)F [Example 61]",
    "target": "genotype 1a (H77) stable HCV replicon in Huh-7-derived cells",
    "answer_label": "Not met"
  },
  {
    "compound": "CC[C@@H]1[C@@H]2CN(C(=O)[C@H](C(C)(C)C)NC(=O)O[C@@]3(C)C[C@@H]3CCCCC(F)(F)c3nc4ccc(OC)cc4nc3O2)[C@@H]1C(=O)N[C@]1(C(=O)NS(=O)(=O)C2(C)CC2)C[C@H]1C(F)F [Example 64]",
    "target": "genotype 1a (H77) stable HCV replicon in Huh-7-derived cells",
    "answer_label": "Not met"
  },
  {
    "compound": "COc1ccc2nc3c(nc2c1)O[C@H]1CN(C(=O)[C@H](C(C)(C)C)NC(=O)O[C@@H]2[C@H]4CC[C@H](C4)[C@H]2CCCCC3)[C@H](C(=O)N[C@]2(C(=O)NS(=O)(=O)C3CC3)C[C@H]2C(F)F)[C@@H]1C [Example 26]",
    "target": "genotype 1a (H77) stable HCV replicon in Huh-7-derived cells",
    "answer_label": "Met"
  },
  {
    "compound": "COc1ccc2nc3c(nc2c1)O[C@H]1CN(C(=O)[C@H](C2(C)CCCC2)NC(=O)O[C@@H]2C[C@H]2CCCCC3)[C@H](C(=O)N[C@]2(C(=O)NS(=O)(=O)C3(C)CC3)C[C@H]2C(F)F)[C@@H]1C [Example 38]",
    "target": "genotype 1a (H77) stable HCV replicon in Huh-7-derived cells",
    "answer_label": "Met"
  },
  {
    "compound": "COc1ccc2nc3c(nc2c1)O[C@H]1CN(C(=O)[C@H](C(C)(C)C)NC(=O)O[C@@H]2CCC[C@H]2CCCCC3)[C@H](C(=O)N[C@]2(C(=O)NS(=O)(=O)C3CC3)C[C@H]2C(F)F)[C@@H]1C [Example 28]",
    "target": "genotype 1a (H77) stable HCV replicon in Huh-7-derived cells",
    "answer_label": "Met"
  },
  {
    "compound": "CC[C@@H]1[C@@H]2CN(C(=O)[C@H](C3CCCC3)NC(=O)O[C@@H]3C[C@H]3CCCCCc3nc4ccc(OC)cc4nc3O2)[C@@H]1C(=O)N[C@]1(C(=O)NS(=O)(=O)C2(C)CC2)C[C@H]1C(F)F [Example 14]",
    "target": "genotype 1a (H77) stable HCV replicon in Huh-7-derived cells",
    "answer_label": "Met"
  },
  {
    "compound": "C=C[C@@H]1C[C@]1(NC(=O)[C@@H]1[C@H](C)[C@@H]2CN1C(=O)[C@H](C(C)(C)C)NC(=O)O[C@@H]1C[C@H]1CCCCCc1nc3ccc(OC)cc3nc1O2)C(=O)NS(=O)(=O)C1CC1 [Example 48]",
    "target": "genotype 1a (H77) stable HCV replicon in Huh-7-derived cells",
    "answer_label": "Met"
  }
]
